# Target Desc: IsdH linker-NEAT3 (Staphylococcus aureus Mu50, UniProt Q931P4)
# Sequence (Q931P4 476-664): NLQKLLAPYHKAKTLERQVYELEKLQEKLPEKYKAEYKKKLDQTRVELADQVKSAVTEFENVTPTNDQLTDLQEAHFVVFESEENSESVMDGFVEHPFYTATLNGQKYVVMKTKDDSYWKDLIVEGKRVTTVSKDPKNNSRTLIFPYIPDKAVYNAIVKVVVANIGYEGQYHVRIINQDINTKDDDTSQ
# Experiment Summary: ITC
# Condition Set: both partners purified
So I've got a bunch of binders here, and I need their stoichiometry N values.

What value of stoichiometry N has been reported for the following binder? VHH6 Y62A (VHH, source: E. coli BL21(DE3), purified as the WT (Ni-NTA, SEC)) VHH: ELQLVESGGGLVQPGGSLSLSCEVSGFSFDDVDNFIIAWFRQAPGKEREGVSFLRKYDMSTAYAESVKGRFTISSDNARDTVYLQMTNLKPEDTAVYYCALDREGFVFEQGMDFWGKGTQVTVSS
0.93 mol:mol

What value of stoichiometry N has been reported for the following binder? VHH6 V107A (VHH, source: E. coli BL21(DE3), purified as the WT (Ni-NTA, SEC)) VHH: ELQLVESGGGLVQPGGSLSLSCEVSGFSFDDVDNFIIAWFRQAPGKEREGVSFLRKYDMSTYYAESVKGRFTISSDNARDTVYLQMTNLKPEDTAVYYCALDREGFAFEQGMDFWGKGTQVTVSS
0.96 mol:mol

What value of stoichiometry N has been reported for the following binder? VHH6 R55A (VHH, source: E. coli BL21(DE3), purified as the WT (Ni-NTA, SEC)) VHH: ELQLVESGGGLVQPGGSLSLSCEVSGFSFDDVDNFIIAWFRQAPGKEREGVSFLAKYDMSTYYAESVKGRFTISSDNARDTVYLQMTNLKPEDTAVYYCALDREGFVFEQGMDFWGKGTQVTVSS
0.94 mol:mol

What value of stoichiometry N has been reported for the following binder? VHH6 F106A (VHH, source: E. coli BL21(DE3), purified as the WT (Ni-NTA, SEC)) VHH: ELQLVESGGGLVQPGGSLSLSCEVSGFSFDDVDNFIIAWFRQAPGKEREGVSFLRKYDMSTYYAESVKGRFTISSDNARDTVYLQMTNLKPEDTAVYYCALDREGAVFEQGMDFWGKGTQVTVSS
1.01 mol:mol

What value of stoichiometry N has been reported for the following binder? VHH6 D33A (VHH, source: E. coli BL21(DE3), purified as the WT (Ni-NTA, SEC)) VHH: ELQLVESGGGLVQPGGSLSLSCEVSGFSFDDVANFIIAWFRQAPGKEREGVSFLRKYDMSTYYAESVKGRFTISSDNARDTVYLQMTNLKPEDTAVYYCALDREGFVFEQGMDFWGKGTQVTVSS
1.01 mol:mol

What value of stoichiometry N has been reported for the following binder? VHH6 E104A (VHH, source: E. coli BL21(DE3), purified as the WT (Ni-NTA, SEC)) VHH: ELQLVESGGGLVQPGGSLSLSCEVSGFSFDDVDNFIIAWFRQAPGKEREGVSFLRKYDMSTYYAESVKGRFTISSDNARDTVYLQMTNLKPEDTAVYYCALDRAGFVFEQGMDFWGKGTQVTVSS
0.99 mol:mol

What value of stoichiometry N has been reported for the following binder? VHH6 Y57A (VHH, source: E. coli BL21(DE3), purified as the WT (Ni-NTA, SEC)) VHH: ELQLVESGGGLVQPGGSLSLSCEVSGFSFDDVDNFIIAWFRQAPGKEREGVSFLRKADMSTYYAESVKGRFTISSDNARDTVYLQMTNLKPEDTAVYYCALDREGFVFEQGMDFWGKGTQVTVSS
1.03 mol:mol

What value of stoichiometry N has been reported for the following binder? VHH6 F108A (VHH, source: E. coli BL21(DE3), purified as the WT (Ni-NTA, SEC)) VHH: ELQLVESGGGLVQPGGSLSLSCEVSGFSFDDVDNFIIAWFRQAPGKEREGVSFLRKYDMSTYYAESVKGRFTISSDNARDTVYLQMTNLKPEDTAVYYCALDREGFVAEQGMDFWGKGTQVTVSS
0.97 mol:mol
